measured property: melting point

[
  {
    "compound": "Clc1cc(-c2ccccc2)ccn1",
    "melting point": "70 to 72 °C"
  },
  {
    "compound": "CC1(C)COc2ccc(C#N)cc21",
    "melting point": "70 to 71 °C"
  },
  {
    "compound": "O=C(COCc1cccs1)C12CC3CC(CC(C3)C1)C2",
    "melting point": "57.2 to 58.3 °C"
  }
]

Quick one: give me melting point for each item below, same order please.
1. O=C1CCN(Cc2ccccc2OC(F)F)CC1C(c1ccc(F)cc1)c1ccc(F)cc1 (stereo not given)
2. c1ccc(C(c2ccccc2)N2CCN(CCCOc3ccc4nncn4n3)CC2)cc1
3. CN(C)c1ccc2[nH]c(=O)oc(=O)c2c1
4. CC(C)n1c(-c2ccccc2)nc(-c2ccc(F)cc2)c1C=O
5. CCC1(CC)C(=O)N(CC(O)Cc2cc(C)c(O)c(C(C)(C)C)c2)C(=O)N(CC(O)Cc2cc(C)c(O)c(C(C)(C)C)c2)C1=O (stereo not given)
6. O=C1CCc2c(Oc3ccc([N+](=O)[O-])cn3)cccc21
7. Nc1ccc(C(=O)N2Cc3ccccc3Cc3ccccc32)c(Cl)c1

83 to 84 °C
132 to 134 °C
258 °C
130 to 134 °C
147 to 148 °C
119 to 123 °C
158 to 161 °C

Lab note: each compound below needs its melting point filled in.
1. O=C1c2ccccc2C(=O)C1(c1ccccc1)N1CCC(c2noc3cc(F)ccc23)CC1
2. CC(C)(C)OC(=O)N[C@H]1CC[C@H](CCN2CCN(c3cc(C#N)cc(C(F)(F)F)c3)CC2)CC1
3. COc1ccc2c(c1)CCC1C3CC4OCCOC4C3(C)CC(=O)C21C (stereo not given)
4. NC1CCC(CCN2CCN(c3ccccc3)CC2)CC1 (stereo not given)
5. O=C(Nc1cccnc1)N1CCN(c2nccc(-c3cc(F)cc(F)c3)n2)CC1
6. C1=C2NCCCN2Cc2ccccc2C1c1ccccc1 (stereo not given)
7. CC(O)C(C)(C)NC(=S)NC(=O)c1ccccc1 (stereo not given)

1. 149 to 150 °C
2. 139 to 140 °C
3. 142 to 145 °C
4. 65 to 70 °C
5. 231 to 232 °C
6. 227 to 228 °C
7. 136 to 138 °C

====

measured property: melting point

[
  {
    "compound": "Cc1noc(NS(=O)(=O)c2ccccc2-c2ccc(-c3ccncn3)cc2)c1C",
    "melting point": "211 to 214 °C"
  },
  {
    "compound": "C#CCNc1ccc(C(C)=O)cc1",
    "melting point": "97 to 100 °C"
  },
  {
    "compound": "C[Si](C)(C)c1ccc(-c2ccc(Br)cc2F)c(F)c1F",
    "melting point": "78 °C"
  },
  {
    "compound": "Cc1cc(Cl)nn2cnnc12",
    "melting point": "134 to 136 °C"
  },
  {
    "compound": "COc1cc2c(cn1)OCC21C(=O)N(C(c2ccccc2)c2ccccc2)c2ccccc21 (centres undefined)",
    "melting point": "177 to 178 °C"
  }
]

Give melting point for each of the items listed below.
1. NCCNS(=O)(=O)c1cc(NC(=O)c2cnn3c(C(F)F)cc(-c4ccc(C(F)(F)F)cc4)nc23)c(Cl)s1
2. N=C(Nc1cc(Cl)cc(NC(=O)C=Cc2ccccc2Cl)c1)c1ccc(NCc2ccccn2)cc1
3. O=C1N(C(c2ccccc2)c2ccccc2)c2c(F)cccc2C12COc1cc3c(cc12)CCO3 (centres undefined)
4. CCOC(=O)c1cnc(N2CCN(Cc3ccccc3)CC2)nc1O

1: 150 °C; 2: 119 to 122 °C; 3: 183 to 184 °C; 4: 151 to 153 °C

====

Task for the reader: assign each of the following compounds its reported melting point.

Known results for compounds:
[
  {
    "compound": "CN1CCN(CCC#Cc2csc3ncc(C#N)c(Nc4ccc5[nH]ccc5c4)c23)CC1",
    "measured property": "melting point",
    "result": "184 to 186 °C"
  },
  {
    "compound": "CC(C)Oc1nc(N)nc2c1ncn2C1CC(N=[N+]=[N-])C(CO)O1 (stereo unspecified)",
    "measured property": "melting point",
    "result": "195 to 197 °C"
  },
  {
    "compound": "N#Cc1ccc(C(=O)NCCCCn2cnc3c(N)nc4ccccc4c32)cn1",
    "measured property": "melting point",
    "result": "125 to 129 °C"
  },
  {
    "compound": "CC(C)c1cccc(C(C)C)c1NC(=O)CN1CCN(CCSc2nc3cccc(C(C)(C)C)c3o2)CC1",
    "measured property": "melting point",
    "result": "138 to 140 °C"
  }
]

For every listed record, write down its melting point.
1. COc1cc(Cc2cnc(N)nc2NC(C)=O)cc(OC)c1C(C)(C)O
2. COC(=O)/C=C/CSc1nc(N)cc(Cl)n1
3. C[C@@](O)(C(=O)Nc1ccc(S(=O)(=O)c2ccc(F)cc2)cc1Cl)C(F)(F)F

1. 214 to 216 °C
2. 146 to 149 °C
3. 131 to 133 °C

State recorded melting point for all listed compounds.
1. O=C1Nc2cccc(-c3ccc(C(=O)O)cc3)c2/C1=C/c1ccc[nH]1
2. COC(=O)Cc1ccc(OCC(C)NCC(O)c2ccc(Cl)cc2)cc1 (stereo unspecified)
3. CC(C)(C)c1cc(Nc2cccc(-c3nnn[nH]3)c2)cc(C(C)(C)C)c1O

1. 315 to 317 °C
2. 78 to 79 °C
3. 231 to 233 °C

Each of the following entries comes with a recorded value; kindly state melting point for each.
1. COc1cc2c(cc1OC)C(Cc1cc(I)c(I)c(I)c1)N(C(=O)C(F)(F)F)CC2 (stereo unspecified)
2. CNc1nc(C(C)c2ccc(-c3ccccc3)c(F)c2)c(C(=O)NO)s1 (stereo unspecified)
3. COC(=O)CS(=O)(=O)c1ccc(OC)c(OC)c1
4. CCOC(=O)N(N=c1[nH]c(SC)nc2ccc(C)cc12)c1ccccc1
5. Cc1ccc(C(=O)NC(NC(=S)Nc2ccccc2C)C(F)(F)F)cc1 (stereo unspecified)
6. CCOc1ccc(Nc2ncc(C(=O)O)c(=O)[nH]2)cc1OCC
7. CCCS(=O)(=O)Cc1cc2oc(S(N)(=O)=O)cc2cn1

["215 to 216 °C", "118 °C", "81 to 83 °C", "230 °C", "210 to 211 °C", "243 to 245 °C", "167 to 169 °C"]

Report melting point for every entry below.
1. CCCc1c(OCCCCCOc2ccc3c(=O)cc(C(=O)OCC)oc3c2CCC)ccc(C(C)=O)c1O
2. O=CC(=O)c1ccc2c(c1)CCC2
3. O=C(/C=C/c1c[nH]c2ccc(OCc3ccccc3)cc12)c1ccncc1
4. COc1ccccc1N1CCN(CCNc2ccccc2C(C)=O)CC1

90 to 91 °C
100 to 112 °C
218 to 221 °C
92 to 94 °C

Answer for every listed entry: what is its melting point? The entries follow.
1. CC(C)=CCOC(C)C1CCC2=C3C=CC4C(C)(C)C(O)CCC4(C)C3CCC21C (stereo unspecified)
2. CC(C)(C)OC(=O)NCC(=O)c1ccc(OCc2ccccc2)cc1
3. O=C(O)CC(NC(=O)OCc1ccccc1)C(=O)CON1C(=O)Cc2ccccc21 (stereo unspecified)
4. COC(=O)Cc1c(C(=O)OC)ccn1CCI
5. CC(C)(C)C1(c2ccc(C(=O)O)cc2)OCCO1
6. CSc1ncnn1C[C@]1(c2ccc(F)c(F)c2)O[C@@H]1c1ccccc1C(F)(F)F (relative stereo)
7. Nc1nnc(-c2ccccc2OC(F)(F)C(F)F)c(N)n1
8. O=C1N(c2ccc(F)cc2)c2ccccc2C1(O)c1cc2c(cc1O)OCCO2 (stereo unspecified)

171 to 174 °C
75 to 76 °C
58 to 70 °C
137 to 138 °C
214 to 216 °C
83 to 85 °C
158 to 160 °C
195 to 200 °C

For each entry beneath this line, provide reported melting point.
1. CC(C)N(CCCN1C(=O)C(=O)c2ccccc21)C(C)C
2. CC(=O)Nc1nc(C(Cl)(Cl)Cl)ns1
3. C[Si](C)(C)CCOC(=O)c1cccc2nnsc12
4. c1ccc(OCC2CCN(CCCOc3cccc4[nH]c5ccccc5c34)CC2)cc1
5. CCOc1ccc2nc(CCl)cn2c1
6. CC1CC(C)(C)NC(c2ccccc2)=N1 (stereo unspecified)

["49 to 50 °C", "193 °C", "37 to 39 °C", "126 to 128 °C", "95 to 96 °C", "86 to 87 °C"]

Could you report melting point for every entry in the following list?
1. CCn1c(C)c(C(c2ccco2)S(=O)(=O)c2ccc(C)cc2)c2ccccc21 (stereo unspecified)
2. OC1(CNc2ccnc3cc(Cl)ccc23)CCCCC1

1: 99.8 to 105 °C; 2: 205 to 207 °C

Parameter requested: melting point. Apply to each item below.
1. COc1cc(Nc2nccc(-c3ccc([N+](=O)[O-])cc3)n2)cc(OC)c1OC
2. CCC(C)Cc1nc(-c2cc[nH]n2)nc(OC)c1-c1c(F)cc(F)cc1F (stereo unspecified)
3. Cc1cccc(C(=O)Nc2nc(C(Cl)(Cl)Cl)ns2)c1

1. 196 °C
2. 124 °C
3. 142 °C

May I ask what melting point has been recorded for CN(C)[C@H]1C[C@@H]2CN(C(=O)c3ccc(NC(=O)c4ccccc4-c4ccccc4)cc3)c3ccccc3N2C1 ?
195 to 197 °C
